- Assay system: Prk (Synechocystis sp. PCC 6803, UniProt P37101)
- Sequence (P37101 1-332): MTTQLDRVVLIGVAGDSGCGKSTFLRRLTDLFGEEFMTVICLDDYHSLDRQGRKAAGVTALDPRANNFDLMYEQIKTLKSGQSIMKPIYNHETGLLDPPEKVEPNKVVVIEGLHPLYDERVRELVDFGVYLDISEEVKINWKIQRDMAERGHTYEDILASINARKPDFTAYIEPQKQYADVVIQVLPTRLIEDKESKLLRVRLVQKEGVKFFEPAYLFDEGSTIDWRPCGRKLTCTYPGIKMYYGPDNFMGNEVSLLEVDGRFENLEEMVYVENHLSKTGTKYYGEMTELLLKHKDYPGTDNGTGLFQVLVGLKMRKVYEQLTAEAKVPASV
Measurement kind: pKi
Here pKi is given on a logarithmic scale as minus log10 of the concentration in mol/L.

Problem: What measured pKi goes with O=C(O)C[C@H](C(=O)O)[C@@H](O)C(=O)O [isocitrate] ?
Solution: 2.84
